read-out: TIMP metallopeptidase inhibitor 2 (TIMP2), TIMP2 (gene 7077); test: BSK_KF3CT_TIMP2: BioMAP Diversity Plus: KF3CT Assay for TIMP metallopeptidase inhibitor 2 (TIMP2) Biomarker Activity (AID 2283071); details: primary human keratinocytes with fibroblasts; actives raise or lower the signal
Active and inactive are the calls of the source. The calls were made as follows: active = hit-call score of the fitted dose curve at least 0.9, where 1 is the maximum; inactive = score below 0.9.
Outcomes: label 1 (active), label 0 (inactive)

# compound, class-label
records = [
    ("CN(C)C(=S)SC(=S)N(C)C", "label 0"),
    ("O=CN1CCOCC1", "label 0"),
    ("CS(=O)(=O)c1ccc(C2=C(c3ccccc3)C(=O)OC2)cc1", "label 0"),
    ("CCC(C)c1cc([N+](=O)[O-])cc([N+](=O)[O-])c1OC(=O)OC(C)C (stereo not given)", "label 1"),
    ("CCN(CC)C(=O)N(CC)CC", "label 0"),
    ("COc1cc(Cl)c(OC)cc1N", "label 0"),
    ("CC(CN=Cc1ccccc1O)N=Cc1ccccc1O (stereo not given)", "label 0"),
    ("C=C(C)C(=O)OCCOCCOCCOC(=O)C(=C)C", "label 0"),
    ("CSCCC=O", "label 0"),
    ("C=C(C)C(=O)OCCOCCOCCOCCOC(=O)C(=C)C", "label 0"),
    ("C=CC(C)(O)CCC=C(C)C (stereo not given)", "label 0"),
    ("c1ccc(Oc2ccccc2)cc1", "label 1"),
    ("O=C1OC[C@H](Cc2cccc(O)c2)[C@H]1Cc1cccc(O)c1", "label 0"),
    ("IC(I)I", "label 0"),
    ("CCCCOC(=O)CCCCCCCC(=O)OCCCC", "label 0"),
]
